This collection of values is drawn from patent US20250250357A1.

Quick reference: OD450 of the listed items.
Target: T1, human MSLN-R1-his protein (human, UniProt Q13421 296-390)
T1 construct: Self-made in HEK293E cells; also called human MSLN-R1 protein; hMSLN-R1-his; not shown: His tag
T1 chain: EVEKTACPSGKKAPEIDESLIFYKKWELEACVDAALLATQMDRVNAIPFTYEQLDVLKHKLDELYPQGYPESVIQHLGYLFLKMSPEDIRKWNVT
Experiment: ELISA on coated antigen, antibody 0.01 nM
Kindly provide the numeric value in OD450 only, without the unit symbol.

binder="S009-F3.80.22 (antibody, human IgG1, kappa, V domains shown, Human-murine chimeric antibody: murine VH/VL on human IgG1 heavy and kappa light constant regions) VH: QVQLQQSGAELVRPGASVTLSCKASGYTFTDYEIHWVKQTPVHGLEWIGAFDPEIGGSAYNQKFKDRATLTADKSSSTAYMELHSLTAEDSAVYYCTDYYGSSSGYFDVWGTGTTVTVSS VL: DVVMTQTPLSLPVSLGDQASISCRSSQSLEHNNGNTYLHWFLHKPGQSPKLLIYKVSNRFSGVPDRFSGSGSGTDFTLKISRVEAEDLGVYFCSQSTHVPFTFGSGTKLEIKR" observed_measurement=0.06

Prompt: Output measured OD450 for this item: S009-F3.74.20 (antibody, human IgG1, kappa, V domains shown, Human-murine chimeric antibody: murine VH/VL on human IgG1 heavy and kappa light constant regions) VH: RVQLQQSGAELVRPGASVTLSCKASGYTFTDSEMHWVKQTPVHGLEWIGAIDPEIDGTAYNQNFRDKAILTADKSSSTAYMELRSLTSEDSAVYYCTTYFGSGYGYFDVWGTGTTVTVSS VL: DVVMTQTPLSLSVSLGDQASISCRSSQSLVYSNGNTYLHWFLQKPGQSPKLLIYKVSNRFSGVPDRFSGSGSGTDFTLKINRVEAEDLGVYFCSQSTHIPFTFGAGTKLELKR
Response: 0.06

Prompt: Output measured OD450 for this item: S009-F3.45.21 (antibody, human IgG1, kappa, V domains shown, Human-murine chimeric antibody: murine VH/VL on human IgG1 heavy and kappa light constant regions) VH: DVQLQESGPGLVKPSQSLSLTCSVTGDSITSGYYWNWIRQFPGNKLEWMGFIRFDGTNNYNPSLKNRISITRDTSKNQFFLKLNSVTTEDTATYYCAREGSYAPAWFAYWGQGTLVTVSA VL: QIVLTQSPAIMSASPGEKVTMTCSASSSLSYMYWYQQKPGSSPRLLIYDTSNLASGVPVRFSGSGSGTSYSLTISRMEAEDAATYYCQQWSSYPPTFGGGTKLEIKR
Response: 0.06
